TESTED_ON: N-formyl peptide receptor 2 (Homo sapiens, UniProt P25090)
PROTOCOL_DESCRIPTION: Agonist activity at ALX/FPR2 in human THP1 cells harboring NF-kB-Luc assessed as inhibition of LPS-induced NFkB signalling activation by measuring reduction in IL-1beta secretion pretreated for 30 mins followed by LPS stimulation for 24 hrs by electrochemiluminescence assay
Type: cell-based
CONDITION_PARAMETERS: read-out: IC50
ENDPOINT_NAME: IC50

- CCCCC[C@H](O)c1nc(-c2ccccc2)n(-c2ccccc2)c1/C=C/[C@@H](O)[C@@H](O)CCCC(=O)OC: 1 nM
- CCCCC[C@H](O)/C=C/C=C\C=C\C=C\[C@@H](O)[C@@H](O)CCCC(=O)O [LIPOXIN A4]: 1.8 nM
- CCC[C@H](O)c1c(/C=C/[C@@H](O)[C@@H](O)CCCC(=O)OC)nc(C)n1C: 3.6 nM
- CCCCC[C@@H](O)c1nc(-c2ccccc2)n(-c2ccccc2)c1/C=C/[C@@H](O)[C@@H](O)CCCC(=O)OC: 1.4 nM
- CCCCC[C@H](O)c1nc(-c2ccccc2)oc1/C=C/[C@@H](O)[C@@H](O)CCCC(=O)OC(C)C: 3.2 nM
- CCC[C@@H](O)c1c(/C=C/[C@@H](O)[C@@H](O)CCCC(=O)OC)nc(C)n1C: 3.7 nM
- CCCCC[C@H](O)c1c(/C=C/[C@@H](O)[C@@H](O)CCCC(=O)OC)nc(C)n1C: 2.6 nM

----------
Tested on: THP-1
PROTOCOL_DESCRIPTION: Cytotoxicity against human THP1 cells harboring NFkB-Luc assessed as LDH release at 10'9 M after 24 hrs by spectrophotometric method relative to control
Format: cell-based
CONDITION_PARAMETERS: thp-1, 24 h
The following compounds are shown together with reported fold change (FC) values.
ENDPOINT_NAME: fold change (FC)

- CCCCC[C@@H](O)c1nc(-c2ccccc2)n(-c2ccccc2)c1/C=C/[C@@H](O)[C@@H](O)CCCC(=O)OC: 0.8
- CCCCC[C@H](O)c1nc(-c2ccccc2)n(-c2ccccc2)c1/C=C/[C@@H](O)[C@@H](O)CCCC(=O)OC: 0.8
- CCCCC[C@@H](O)c1c(/C=C/[C@@H](O)[C@@H](O)CCCC(=O)OC)nc(C)n1C: 0.8
- CCCCC[C@H](O)c1nc(-c2ccccc2)oc1/C=C/[C@@H](O)[C@@H](O)CCCC(=O)OC(C)C: 0.9

----------
Quick list: IC50 per entry.
TESTED_ON: N-formyl peptide receptor 2 (Homo sapiens, UniProt P25090)
PROTOCOL_DESCRIPTION: Agonist activity at ALX/FPR2 in human THP1 cells harboring NF-kB-Luc assessed as inhibition of LPS-induced NFkB signalling activation pretreated for 30 mins followed by LPS stimulation for 24 hrs by luciferase reporter gene assay
Format: cell-based
ENDPOINT_NAME: IC50 (nM)

- CCCCC[C@H](O)c1nc(-c2ccccc2)oc1/C=C/[C@@H](O)[C@@H](O)CCCC(=O)OC(C)C: 69.6
- COC(=O)CCC[C@H](O)[C@H](O)/C=C/c1nc(C)n(C)c1[C@@H](C)O: 27.8
- CCC[C@H](O)c1c(/C=C/[C@@H](O)[C@@H](O)CCCC(=O)OC)nc(C)n1C: 31.5

----------
Below, each entry is listed alongside its reported fold change (FC).
System: THP-1
PROTOCOL_DESCRIPTION: Cytotoxicity against human THP1 cells harboring NFkB-Luc assessed as LDH release at 10'6 M after 24 hrs by spectrophotometric method relative to control
Format: cell-based
CONDITION_PARAMETERS: thp-1, 24 h
ENDPOINT_NAME: fold change (FC)

• CCCCC[C@H](O)c1nc(-c2ccccc2)oc1/C=C/[C@@H](O)[C@@H](O)CCCC(=O)OC(C)C = 1
• CCCCC[C@@H](O)c1c(/C=C/[C@@H](O)[C@@H](O)CCCC(=O)OC)nc(C)n1C = 1.1
• CCCCC[C@@H](O)c1nc(-c2ccccc2)n(-c2ccccc2)c1/C=C/[C@@H](O)[C@@H](O)CCCC(=O)OC = 1.1
• C[C@@H]1C[C@H]2[C@@H]3CCC4=CC(=O)C=C[C@]4(C)[C@@]3(F)[C@@H](O)C[C@]2(C)[C@@]1(O)C(=O)CO [DEXAMETHASONE] = 1.3
• CCCCC[C@H](O)c1nc(-c2ccccc2)n(-c2ccccc2)c1/C=C/[C@@H](O)[C@@H](O)CCCC(=O)OC = 1.6

----------
TESTED_ON: N-formyl peptide receptor 2 (Homo sapiens) (UniProt P25090)
PROTOCOL_DESCRIPTION: Agonist activity at ALX/FPR2 in human THP1 cells harboring NF-kB-Luc assessed as inhibition of LPS-induced NFkB signalling activation by measuring NF-kB activation level at 10^-12 M pretreated for 30 mins followed by LPS stimulation for 24 hrs by luciferase reporter gene assay
Format: cell-based
Parameters: scale not given: the % may be the effect or the level left
The following compounds are listed with their measured Activity values.
ENDPOINT_NAME: Activity (%)

* CCCCC[C@@H](O)c1nc(-c2ccccc2)n(-c2ccccc2)c1/C=C/[C@@H](O)[C@@H](O)CCCC(=O)OC | 99.5
* CCCCC[C@H](O)c1nc(-c2ccccc2)n(-c2ccccc2)c1/C=C/[C@@H](O)[C@@H](O)CCCC(=O)OC | 88.2
* CCCCC[C@H](O)/C=C/C=C\C=C\C=C\[C@@H](O)[C@@H](O)CCCC(=O)O [LIPOXIN A4] | 95.3
* CCCCC[C@@H](O)c1ccccc1/C=C/[C@@H](O)[C@@H](O)CCCC(=O)OC | 80

----------
Below, each entry is listed with its recorded IC50.
TESTED_ON: N-formyl peptide receptor 2 (Homo sapiens)
Sequence (P25090 whole entry): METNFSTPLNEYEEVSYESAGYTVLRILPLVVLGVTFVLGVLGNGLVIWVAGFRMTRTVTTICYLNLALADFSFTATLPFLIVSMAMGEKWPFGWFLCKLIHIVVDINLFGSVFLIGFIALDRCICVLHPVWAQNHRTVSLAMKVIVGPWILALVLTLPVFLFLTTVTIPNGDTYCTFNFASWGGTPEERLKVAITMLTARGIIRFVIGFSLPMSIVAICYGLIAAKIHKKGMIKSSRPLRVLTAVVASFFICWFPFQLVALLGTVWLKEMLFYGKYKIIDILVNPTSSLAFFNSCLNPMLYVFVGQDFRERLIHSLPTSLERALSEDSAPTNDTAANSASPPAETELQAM
PROTOCOL_DESCRIPTION: Agonist activity at ALX/FPR2 in human THP1 cells harboring NF-kB-Luc assessed as inhibition of LPS-induced NFkB signalling activation by measuring reduction in IFNgamma secretion pretreated for 30 mins followed by LPS stimulation for 24 hrs by electrochemiluminescence assay
Type: cell-based
CONDITION_PARAMETERS: read-out: IC50
ENDPOINT_NAME: IC50 (nM)

* CCCCC[C@H](O)c1nc(-c2ccccc2)n(-c2ccccc2)c1/C=C/[C@@H](O)[C@@H](O)CCCC(=O)OC | 0.7
* CCCCC[C@@H](O)c1c(/C=C/[C@@H](O)[C@@H](O)CCCC(=O)OC)nc(C)n1C | 4.4
* CCCCC[C@@H](O)c1nc(-c2ccccc2)n(-c2ccccc2)c1/C=C/[C@@H](O)[C@@H](O)CCCC(=O)OC | 18.5
* CCCCC[C@H](O)c1c(/C=C/[C@@H](O)[C@@H](O)CCCC(=O)OC)nc(C)n1C | 2.2
* CCC[C@@H](O)c1c(/C=C/[C@@H](O)[C@@H](O)CCCC(=O)OC)nc(C)n1C | 4.3
* CCCCC[C@H](O)/C=C/C=C\C=C\C=C\[C@@H](O)[C@@H](O)CCCC(=O)O [LIPOXIN A4] | 22.2
* CCC[C@H](O)c1c(/C=C/[C@@H](O)[C@@H](O)CCCC(=O)OC)nc(C)n1C | 0.9
* CCCCC[C@H](O)c1nc(-c2ccccc2)oc1/C=C/[C@@H](O)[C@@H](O)CCCC(=O)OC(C)C | 2.5

----------
TESTED_ON: N-formyl peptide receptor 2 (Homo sapiens)
PROTOCOL_DESCRIPTION: Agonist activity at ALX/FPR2 in human THP1 cells harboring NF-kB-Luc assessed as inhibition of LPS-induced NFkB signalling activation pretreated for 30 mins followed by LPS stimulation for 24 hrs by luciferase reporter gene assay
Type: cell-based
Labelling: IC50 reported below 30 nM becomes label 1; at or above becomes label 0.

- CCCCC[C@@H](O)c1c(/C=C/[C@@H](O)[C@@H](O)CCCC(=O)OC)nc(C)n1C: label 1
- CCCCC[C@@H](O)c1nc(-c2ccccc2)n(-c2ccccc2)c1/C=C/[C@@H](O)[C@@H](O)CCCC(=O)OC: label 1
- CCCCC[C@H](O)c1nc(-c2ccccc2)n(-c2ccccc2)c1/C=C/[C@@H](O)[C@@H](O)CCCC(=O)OC: label 0
- COC(=O)CCC[C@H](O)[C@H](O)/C=C/c1nc(C)n(C)c1[C@H](C)O: label 1
- CCCCC[C@H](O)c1c(/C=C/[C@@H](O)[C@@H](O)CCCC(=O)OC)nc(C)n1C: label 1
- CCCCC[C@@H](O)c1nc(-c2ccccc2)oc1/C=C/[C@@H](O)[C@@H](O)CCCC(=O)OC(C)C: label 0
- CCC[C@@H](O)c1c(/C=C/[C@@H](O)[C@@H](O)CCCC(=O)OC)nc(C)n1C: label 0
- CCCCC[C@H](O)/C=C/C=C\C=C\C=C\[C@@H](O)[C@@H](O)CCCC(=O)O: label 1
